# System: K562
# ASSAY: Cytotoxicity against human K562 cells after 72 hrs by MTT assay
# Assay type: functional, cell-based
# CONDITION_DETAILS: K562, 72 h
EXPERIMENTAL_READOUT: pIC50
When answering, recall that pIC50 equals minus log10 of the concentration in mol/L, and write that number alone.

{"GIVEN_SMILES": "COC(=O)[C@@]12Oc3c(-c4ccc5c(c4O)C(=O)C[C@@](C(=O)OC)([C@@H]4OC(=O)C[C@@H]4C)O5)ccc(O)c3C(=O)C1=C(O)C[C@H](C)[C@H]2O", "pIC50": 5.15}
{"GIVEN_SMILES": "COC(=O)C[C@H](C)[C@@H](O)[C@]1(C(=O)OC)CC(=O)c2c(ccc(-c3ccc(O)c4c3O[C@]3(C(=O)OC)C(=C(O)C[C@H](C)[C@H]3O)C4=O)c2O)O1", "pIC50": 4.95}

# ---- query compound ----
Report pIC50 for `COC(=O)[C@@]12Oc3ccc(-c4ccc5c(c4O)C(=O)C[C@@](C(=O)OC)([C@@H]4OC(=O)C[C@@H]4C)O5)c(O)c3C(=O)C1=C(O)C[C@H](C)[C@H]2O` tested on K562.
5.04

====

# System: NCI-H1975
# ASSAY: Cytotoxicity against human NCI-H1975 cells after 72 hrs by MTT assay
# Format: functional, cell-based
# CONDITION_DETAILS: NCI-H1975, 72 h
Counter-ions that a name gives are not always drawn.
EXPERIMENTAL_READOUT: IC50

Please look up its IC50: `COC(=O)[C@@]12Oc3c(-c4ccc(O)c5c4O[C@](C(=O)OC)([C@@H]4OC(=O)C[C@@H]4C)CC5=O)ccc(O)c3C(=O)C1=C(O)C[C@H](C)[C@H]2O`
> 50 µM

Please look up its IC50: COc1cccc2c1C(=O)c1c(O)c3c(c(O)c1C2=O)C[C@@](O)(C(=O)CO)C[C@@H]3O[C@H]1C[C@H](N)[C@H](O)[C@H](C)O1 [DOXORUBICIN HYDROCHLORIDE]
0.8 µM

Please look up its IC50: `COC(=O)C[C@H](C)[C@@H](O)[C@]1(C(=O)OC)CC(=O)c2c(ccc(-c3ccc(O)c4c3O[C@]3(C(=O)OC)C(=C(O)C[C@H](C)[C@H]3O)C4=O)c2O)O1`
2.7 µM

Please look up its IC50: `COC(=O)[C@@]12Oc3ccc(-c4ccc5c(c4O)C(=O)C[C@@](C(=O)OC)([C@@H]4OC(=O)C[C@@H]4C)O5)c(O)c3C(=O)C1=C(O)C[C@H](C)[C@H]2O`
> 50 µM

Please look up its IC50: `COC(=O)[C@@]12Oc3ccc(-c4ccc(O)c5c4O[C@](C(=O)OC)([C@@H]4OC(=O)C[C@@H]4C)CC5=O)c(O)c3C(=O)C1=C(O)C[C@H](C)[C@H]2O`
25.6 µM

Please look up its IC50: `COC(=O)[C@@]12Oc3c(-c4ccc5c(c4O)C(=O)C[C@@](C(=O)OC)([C@@H]4OC(=O)C[C@@H]4C)O5)ccc(O)c3C(=O)C1=C(O)C[C@H](C)[C@H]2O`
11.2 µM

====

Recorded IC50 for the following compounds
# Tested on: K562
# ASSAY: Cytotoxicity against human K562 cells after 72 hrs by MTT assay
# Format: functional, cell-based
# CONDITION_DETAILS: K562, 72 h
The answer should read as a number with its unit following.

{"GIVEN_SMILES": "COC(=O)C[C@H](C)[C@@H](O)[C@]1(C(=O)OC)CC(=O)c2c(ccc(-c3ccc4c(c3O)C(=O)C3=C(O)C[C@H](C)[C@@H](O)[C@]3(C(=O)OC)O4)c2O)O1", "READOUT_VALUE": "6.7 µM"}
{"GIVEN_SMILES": "COC(=O)[C@@]12Oc3ccc(-c4ccc5c(c4O)C(=O)C4=C(O)C[C@H](C)[C@@H](O)[C@]4(C(=O)OC)O5)c(O)c3C(=O)C1=C(O)C[C@H](C)[C@H]2O", "READOUT_VALUE": "2 µM"}

# ---- query compound ----
Report IC50 for `COC(=O)[C@@]12Oc3ccc(-c4ccc(O)c5c4O[C@](C(=O)OC)([C@@H]4OC(=O)C[C@@H]4C)CC5=O)c(O)c3C(=O)C1=C(O)C[C@H](C)[C@H]2O` tested on K562.
18.2 µM
